Test system: 786-0 complex spheroids with HUVEC/MSC, growth % test/control
Experiment: Anticancer human tumor 786-0 cell line growth inhibition [AhR]; active = viability on the fitted dose curve at most 10% of control; inactive = the rest;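 also: compound exposure lasted seven days before the read-out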
Details: second compound 3.16 µM; first compound 1 µM
Outcomes: active, inactive

compound	assigned class
CC1(C)CCC(CN2CCN(c3ccc(C(=O)NS(=O)(=O)c4ccc(NCC5CCOCC5)c([N+](=O)[O-])c4)c(Oc4cnc5[nH]ccc5c4)c3)CC2)=C(c2ccc(Cl)cc2)C1 + CC(CO)NC(=O)c1cc(-c2ccc(Cl)cc2)nn(-c2cnn(C)c2)c1=O	inactive
COc1cccc2c1C(=O)c1c(O)c3c(c(O)c1C2=O)CC(O)(C(=O)CO)CC3OC1CC(N)C(O)C(C)O1 (centres undefined) + Cc1ccccc1N=Nc1ccc(NC(=O)c2ccnn2C)c(C)c1	active
Nc1ccn(C2OC(CO)C(O)C2(F)F)c(=O)n1 (centres undefined) + Cc1cncc(-c2nc(NCCc3c[nH]c4ccccc34)c3ncn(C(C)C)c3n2)c1	active
COc1cc(C2c3cc4c(cc3C(OC3OC5COC(C)OC5C(O)C3O)C3COC(=O)C23)OCO4)cc(OC)c1O (centres undefined) + Cc1ccccc1N=Nc1ccc(NC(=O)c2ccnn2C)c(C)c1	inactive
CC1COCCN1c1cc(-c2ccnn2C)c2ccnc(-c3ccn[nH]3)c2n1 (centres undefined) + Cc1ccccc1N=Nc1ccc(NC(=O)c2ccnn2C)c(C)c1	active
CC1COCCN1c1cc(C2(S(C)(=N)=O)CC2)nc(-c2ccnc3[nH]ccc23)n1 (centres undefined) + CC(CO)NC(=O)c1cc(-c2ccc(Cl)cc2)nn(-c2cnn(C)c2)c1=O	inactive
CC1(C)CCC(CN2CCN(c3ccc(C(=O)NS(=O)(=O)c4ccc(NCC5CCOCC5)c([N+](=O)[O-])c4)c(Oc4cnc5[nH]ccc5c4)c3)CC2)=C(c2ccc(Cl)cc2)C1 + Cc1cncc(-c2nc(NCCc3c[nH]c4ccccc34)c3ncn(C(C)C)c3n2)c1	inactive
CC1COCCN1c1cc(-c2ccnn2C)c2ccnc(-c3ccn[nH]3)c2n1 (centres undefined) + CC(CO)NC(=O)c1cc(-c2ccc(Cl)cc2)nn(-c2cnn(C)c2)c1=O	active
Nc1ncn(C2CC(O)C(CO)O2)c(=O)n1 (centres undefined) + CC(CO)NC(=O)c1cc(-c2ccc(Cl)cc2)nn(-c2cnn(C)c2)c1=O	inactive
Nc1ccccc1NC(=O)c1ccc(CNC(=O)OCc2cccnc2)cc1 + Cc1ccccc1N=Nc1ccc(NC(=O)c2ccnn2C)c(C)c1	inactive
NS(=O)(=O)OCC1CC(n2ccc3c(NC4CCc5ccccc54)ncnc32)CC1O (centres undefined) + Cc1ccccc1N=Nc1ccc(NC(=O)c2ccnn2C)c(C)c1	inactive
O=C(c1cc(Cc2n[nH]c(=O)c3ccccc23)ccc1F)N1CCN(C(=O)C2CC2)CC1 + Cc1ccccc1N=Nc1ccc(NC(=O)c2ccnn2C)c(C)c1	inactive
Nc1ccn(C2OC(CO)C(O)C2(F)F)c(=O)n1 (centres undefined) + CC(CO)NC(=O)c1cc(-c2ccc(Cl)cc2)nn(-c2cnn(C)c2)c1=O	active
COc1cccc2c1C(=O)c1c(O)c3c(c(O)c1C2=O)CC(O)(C(=O)CO)CC3OC1CC(N)C(O)C(C)O1 (centres undefined) + CC(CO)NC(=O)c1cc(-c2ccc(Cl)cc2)nn(-c2cnn(C)c2)c1=O	active
CC(C)c1c(-c2ccccc2)nc2c(C#N)c[nH]n2c1=O + Cc1ccccc1N=Nc1ccc(NC(=O)c2ccnn2C)c(C)c1	inactive
O=C(C=Cc1cccc(S(=O)(=O)Nc2ccccc2)c1)NO + Cc1ccccc1N=Nc1ccc(NC(=O)c2ccnn2C)c(C)c1	inactive
CC(C)c1c(-c2ccccc2)nc2c(C#N)c[nH]n2c1=O + Cc1cncc(-c2nc(NCCc3c[nH]c4ccccc34)c3ncn(C(C)C)c3n2)c1	inactive
Nc1ccccc1NC(=O)c1ccc(CNC(=O)OCc2cccnc2)cc1 + CC(CO)NC(=O)c1cc(-c2ccc(Cl)cc2)nn(-c2cnn(C)c2)c1=O	inactive
O=C(c1cc(Cc2n[nH]c(=O)c3ccccc23)ccc1F)N1CCN(C(=O)C2CC2)CC1 + CC(CO)NC(=O)c1cc(-c2ccc(Cl)cc2)nn(-c2cnn(C)c2)c1=O	inactive
COc1ccc([C@@H](O)c2cc(-c3ncnc4cc(N5CCOCC5)ccc34)c(F)cc2Cl)nn1 + Cc1cncc(-c2nc(NCCc3c[nH]c4ccccc34)c3ncn(C(C)C)c3n2)c1	inactive
Nc1ccn(C2OC(CO)C(O)C2(F)F)c(=O)n1 (centres undefined) + Cc1ccccc1N=Nc1ccc(NC(=O)c2ccnn2C)c(C)c1	active
COc1cccc2c1C(=O)c1c(O)c3c(c(O)c1C2=O)CC(O)(C(=O)CO)CC3OC1CC(N)C(O)C(C)O1 (centres undefined) + Cc1cncc(-c2nc(NCCc3c[nH]c4ccccc34)c3ncn(C(C)C)c3n2)c1	active
CC1COCCN1c1cc(C2(S(C)(=N)=O)CC2)nc(-c2ccnc3[nH]ccc23)n1 (centres undefined) + Cc1ccccc1N=Nc1ccc(NC(=O)c2ccnn2C)c(C)c1	inactive
COc1ccc([C@@H](O)c2cc(-c3ncnc4cc(N5CCOCC5)ccc34)c(F)cc2Cl)nn1 + CC(CO)NC(=O)c1cc(-c2ccc(Cl)cc2)nn(-c2cnn(C)c2)c1=O	inactive
